pIC50: −log10 of the molar value.
Assay read-out pIC50 on Tyrosine-protein kinase JAK3 (Homo sapiens, UniProt P52333); records merged from the literature.

Cc1ccnc(NC(=O)c2ccc(Oc3ccnc4[nH]nc(N[C@@H]5CCN(C#N)C5)c34)cc2)c1 = < 5.00
O=C(O)CCn1cc(Nc2ncc3ccn(Cc4ccsc4)c3n2)cn1 = > 7.00
Cc1cnc(NC(=O)c2ccc(Oc3ccnc4[nH]nc(N[C@@H]5CCN(C(=O)CCCN(C)C)C5)c34)cc2)s1 = < 5.00
C=CC(=O)N1CCC[C@@H](Nc2n[nH]c3nccc(Oc4ccc(C(=O)Nc5nc(C)cs5)cc4)c23)C1 = > 7.00

Kindly note: Tyrosine-protein kinase JAK3 (Homo sapiens, UniProt P52333), CCC(CC)n1cc(-c2nc(-c3cnn([C@H]4CC[C@@H](O)CC4)c3)cn3nccc23)cn1 , pIC50 value reported: 5.00 to 6.00

Reported Tyrosine-protein kinase JAK3 (Homo sapiens, UniProt P52333) pIC50 for item CN(c1ncnc2[nH]ccc12)N1CCCC(CC#N)C1 (stereo not drawn) was 6.00 to 7.00

The reported Tyrosine-protein kinase JAK3 (Homo sapiens, UniProt P52333) pIC50 of O=c1[nH]c2c(-c3cccc4[nH]ccc34)nc(-n3cnc4ccc(F)cc43)nc2n1C1CCOCC1 is > 7.00

Let me check: Cc1ncc(S(=O)(=O)N[C@H]2C[C@@H](N(C)c3ncnc4[nH]ccc34)C2)s1 , system Tyrosine-protein kinase JAK3 (Homo sapiens, UniProt P52333), measured pIC50 is < 5.00

Field pIC50 (system: Tyrosine-protein kinase JAK3 (Homo sapiens, UniProt P52333)) for entry CCC(=O)c1cnc(Nc2ccc(CN3CCS(=N)(=O)CC3)cn2)cc1Nc1cccc(-c2ncn(C)n2)c1OC = 6.30 to 7.30

Observed pIC50, Tyrosine-protein kinase JAK3 (Homo sapiens, UniProt P52333), C#CCN(C)C/C=C/C(=O)Nc1cccc(Nc2cc(Nc3cccc(C)c3)ncn2)c1 : 6.00 to 7.00

Observed pIC50 on Tyrosine-protein kinase JAK3 (Homo sapiens, UniProt P52333), entry CCOC(=O)c1cnc2[nH]ccc2c1N(C)[C@H]1CC[C@H](CS(=O)(=O)NC)CC1 , equals 7.00 to 8.00
